Record form. Attribute: self-cleavage. Fill in for each entry.
B1: HDV Ribozyme (parent)
chain: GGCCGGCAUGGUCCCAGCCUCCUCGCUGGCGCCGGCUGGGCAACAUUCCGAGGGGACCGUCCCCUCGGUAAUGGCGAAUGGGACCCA

Variants of: B1
Assay: self-cleavage, relative activity (ratio to wild type); higher = more cleavage; co-transcriptional
Give bare numbers.

>>> print(df.to_string())
   variant_designation  observed_result
0            G35A G74C            0.208
1             C4A U60G           0.0449
2             U9C U47G             1.42
3             U9C A78U            0.185
4            C32U G74A            0.459
5                 U46G            0.793

Can you give me self-cleavage for all of these, one by one?
1. G73A G82U
2. G11C A77U
3. C57A G59U
4. U23A C84G

1: 0.151; 2: 0.0462; 3: 1.11; 4: 0.601
